Test: Drug concentration at steady state in human at 25 to 50 mg, po QD after 24 hrs
Format: ADME, organism-based
Conditions: in vivo, read-out: Css
measured quantity: concentration at 24 h

[[record]]
smiles_input = "COc1cc(C)c(/C=C/C(C)=C/C=C/C(C)=C/C(=O)O)c(C)c1C"
measured_quantity = "concentration at 24 h"
measurement = "255 nM"


---

Reported IC50 values for a set of compounds
Target: Bile salt export pump (Homo sapiens, UniProt O95342)
Sequence (O95342 whole entry): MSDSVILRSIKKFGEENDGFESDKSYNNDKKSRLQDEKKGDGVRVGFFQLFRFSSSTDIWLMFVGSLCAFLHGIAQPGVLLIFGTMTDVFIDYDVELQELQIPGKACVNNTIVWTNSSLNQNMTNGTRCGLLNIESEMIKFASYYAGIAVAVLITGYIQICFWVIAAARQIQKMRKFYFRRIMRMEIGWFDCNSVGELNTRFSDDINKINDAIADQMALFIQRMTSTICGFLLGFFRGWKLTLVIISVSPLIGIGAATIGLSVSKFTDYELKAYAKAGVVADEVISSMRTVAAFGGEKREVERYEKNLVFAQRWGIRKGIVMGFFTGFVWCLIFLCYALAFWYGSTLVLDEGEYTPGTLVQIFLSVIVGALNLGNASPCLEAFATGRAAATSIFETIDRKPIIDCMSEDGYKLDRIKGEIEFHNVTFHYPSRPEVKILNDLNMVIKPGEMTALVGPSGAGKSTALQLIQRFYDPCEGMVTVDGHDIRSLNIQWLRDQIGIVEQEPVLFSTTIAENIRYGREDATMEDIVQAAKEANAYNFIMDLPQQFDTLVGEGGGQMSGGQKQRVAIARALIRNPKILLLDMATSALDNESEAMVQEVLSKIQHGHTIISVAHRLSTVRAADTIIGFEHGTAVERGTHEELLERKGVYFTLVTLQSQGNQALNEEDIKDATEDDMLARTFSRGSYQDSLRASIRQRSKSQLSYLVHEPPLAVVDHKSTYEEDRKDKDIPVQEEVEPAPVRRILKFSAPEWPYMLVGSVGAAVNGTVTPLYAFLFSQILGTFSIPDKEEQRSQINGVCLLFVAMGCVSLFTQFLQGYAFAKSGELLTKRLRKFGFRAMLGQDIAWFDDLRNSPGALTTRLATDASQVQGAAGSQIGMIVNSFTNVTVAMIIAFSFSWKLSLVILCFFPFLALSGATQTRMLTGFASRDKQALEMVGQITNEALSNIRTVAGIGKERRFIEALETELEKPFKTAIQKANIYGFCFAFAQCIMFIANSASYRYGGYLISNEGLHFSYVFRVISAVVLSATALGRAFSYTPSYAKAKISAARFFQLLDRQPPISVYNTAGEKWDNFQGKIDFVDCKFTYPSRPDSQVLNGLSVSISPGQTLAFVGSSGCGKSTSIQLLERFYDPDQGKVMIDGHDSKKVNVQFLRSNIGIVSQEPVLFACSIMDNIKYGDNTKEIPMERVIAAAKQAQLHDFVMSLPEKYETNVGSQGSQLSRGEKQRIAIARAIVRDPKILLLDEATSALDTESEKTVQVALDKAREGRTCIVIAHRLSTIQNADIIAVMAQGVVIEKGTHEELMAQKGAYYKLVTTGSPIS
Assay: Inhibition of human BSEP overexpressed in Sf9 cell membrane vesicles assessed as uptake of [3H]-taurocholate in presence of ATP measured after 15 to 20 mins by membrane vesicle transport assay
Structures can show the parent of a compound that is named as a salt.
measured quantity: IC50

[[record]]
compound = "CC(=O)Nc1c(I)c(NC(C)=O)c(I)c(C(=O)O)c1I [DIATRIZOIC ACID]"
measured_quantity = "IC50"
measurement = "> 133 µM"

[[record]]
compound = "Cn1nnc2c(C(N)=O)ncn2c1=O [TEMOZOLOMIDE]"
measured_quantity = "IC50"
measurement = "> 133 µM"

[[record]]
compound = "CC(c1cc2ccccc2s1)N(O)C(N)=O (stereo unspecified) [ZILEUTON]"
measured_quantity = "IC50"
measurement = "> 133 µM"

[[record]]
compound = "COc1ccc2cc([C@H](C)C(=O)O)ccc2c1 [NAPROXEN]"
measured_quantity = "IC50"
measurement = "> 133 µM"

[[record]]
compound = "C[C@]12CC[C@H](O)CC1=CC[C@@H]1[C@@H]2CC[C@]2(C)C(c3cccnc3)=CC[C@@H]12 [ABIRATERONE]"
measured_quantity = "IC50"
measurement = "> 133 µM"

[[record]]
compound = "COCC1=C(C(=O)OC(C)OC(=O)OC(C)C)N2C(=O)[C@@H](NC(=O)/C(=N\\OC)c3csc(N)n3)[C@H]2SC1 (stereo partly specified) [CEFPODOXIME PROXETIL]"
measured_quantity = "IC50"
measurement = "81.7 µM"

[[record]]
compound = "CC1=C(/C=C/C(C)=C/C=C/C(C)=C\\C(=O)O)C(C)(C)CCC1 [ISOTRETINOIN]"
measured_quantity = "IC50"
measurement = "37.1 µM"

[[record]]
compound = "CC[C@H](C)C(=O)O[C@H]1CCC=C2C=C[C@H](C)[C@H](CC[C@@H]3C[C@@H](O)CC(=O)O3)[C@H]21 [MEVASTATIN]"
measured_quantity = "IC50"
measurement = "27 µM"

[[record]]
compound = "CC(=O)[C@H]1[C@H](C#N)C[C@H]2[C@@H]3CC=C4C[C@@H](O)CC[C@]4(C)[C@H]3CC[C@@]21C [PREGNENOLONE CARBONITRILE]"
measured_quantity = "IC50"
measurement = "> 133 µM"

[[record]]
compound = "NC(=O)CN1CCCC1=O"
measured_quantity = "IC50"
measurement = "> 133 µM"

[[record]]
compound = "CCN(CC)C(=O)c1cccnc1 [NIKETHAMIDE]"
measured_quantity = "IC50"
measurement = "> 133 µM"

[[record]]
compound = "CC1COc2c(N3CCN(C)CC3)c(F)cc3c(=O)c(C(=O)O)cn1c23 (stereo unspecified) [OFLOXACIN]"
measured_quantity = "IC50"
measurement = "> 133 µM"

[[record]]
compound = "Cc1oncc1C(=O)Nc1ccc(C(F)(F)F)cc1 [LEFLUNOMIDE]"
measured_quantity = "IC50"
measurement = "> 133 µM"

[[record]]
compound = "CN1C(C(=O)Nc2ccccn2)=C(O)c2sc(Cl)cc2S1(=O)=O [LORNOXICAM]"
measured_quantity = "IC50"
measurement = "7.56 µM"

[[record]]
compound = "CN1CCN(C2=Nc3ccccc3Oc3ccc(Cl)cc32)CC1.O=C(O)CCC(=O)O [LOXAPINE SUCCINATE]"
measured_quantity = "IC50"
measurement = "77 µM"

[[record]]
compound = "Cc1nc2ccc(CN(C)c3ccc(C(=O)N[C@@H](CCC(=O)O)C(=O)O)s3)cc2c(=O)[nH]1 [RALTITREXED]"
measured_quantity = "IC50"
measurement = "> 133 µM"

[[record]]
compound = "CC(C)[C@H](N)C(=O)OCCOCn1cnc2c(=O)[nH]c(N)nc21 [VALACYCLOVIR HYDROCHLORIDE]"
measured_quantity = "IC50"
measurement = "> 133 µM"

[[record]]
compound = "NCC(CC(=O)O)c1ccc(Cl)cc1 (stereo unspecified) [BACLOFEN]"
measured_quantity = "IC50"
measurement = "> 133 µM"

[[record]]
compound = "C=CC[N+]1([C@H]2C[C@H]3[C@@H]4CC[C@H]5C[C@H](O)[C@@H](N6CCOCC6)C[C@]5(C)[C@H]4CC[C@]3(C)[C@H]2OC(C)=O)CCCC1 [ROCURONIUM BROMIDE]"
measured_quantity = "IC50"
measurement = "> 133 µM"

[[record]]
compound = "CCN(CC)C(=O)/C(C#N)=C/c1cc(O)c(O)c([N+](=O)[O-])c1 [ENTACAPONE]"
measured_quantity = "IC50"
measurement = "55.6 µM"

[[record]]
compound = "CC(C)c1nc(N(C)S(C)(=O)=O)nc(-c2ccc(F)cc2)c1/C=C/[C@@H](O)C[C@@H](O)CC(=O)O [ROSUVASTATIN CALCIUM]"
measured_quantity = "IC50"
measurement = "> 133 µM"


---

Experiment: AUC in human at 10 to 80 mg, po QD after 24 hrs
Type: ADME, organism-based
Conditions: in vivo
measured quantity: AUC at 24 h (µM·h)

[[record]]
smiles_input = "CC[C@H](C)C(=O)O[C@H]1C[C@@H](C)C=C2C=C[C@H](C)[C@H](CC[C@@H]3C[C@@H](O)CC(=O)O3)[C@H]21"
measured_quantity = "AUC at 24 h"
units_label = "µM·h"
measurement = 0.238


---

Assay: AUC in human at 200 mg, po TID after 8 hrs
Type: ADME, organism-based
Set-up: time < 8 hr, dose 200 mg, route oral
Conditions: in vivo
measured quantity: AUC at 8 h (µM·h)

[[record]]
compound = "CC[C@@H]([C@H](C)O)n1ncn(-c2ccc(N3CCN(c4ccc(OC[C@@H]5CO[C@@](Cn6cncn6)(c6ccc(F)cc6F)C5)cc4)CC3)cc2)c1=O [POSACONAZOLE]"
units_label = "µM·h"
measurement = 35.2


---

Target: Bile salt export pump (Homo sapiens)
Test: Inhibition of human BSEP overexpressed in Sf9 cell membrane vesicles assessed as uptake of [3H]-taurocholate in presence of ATP measured after 15 to 20 mins by membrane vesicle transport assay
measured quantity: IC50 (µM)

[[record]]
compound = "C[C@]12CCC(=O)C=C1[C@@H]1C[C@@H]1[C@H]1[C@@H]3[C@@H]4C[C@@H]4[C@@]4(CCC(=O)O4)[C@@]3(C)CC[C@@H]12"
units_label = "µM"
bound_sign = "="
measurement = 16.4

[[record]]
compound = "CC(C)N(CCC(C(N)=O)(c1ccccc1)c1ccccn1)C(C)C (stereo not drawn) [DISOPYRAMIDE]"
units_label = "µM"
bound_sign = ">"
measurement = 133

[[record]]
compound = "CCOC(=O)c1ccc(N)cc1"
units_label = "µM"
bound_sign = ">"
measurement = 133

[[record]]
compound = "CCCCc1oc2ccc(NS(C)(=O)=O)cc2c1C(=O)c1ccc(OCCCN(CCCC)CCCC)cc1.Cl [DRONEDARONE HYDROCHLORIDE]"
units_label = "µM"
bound_sign = "="
measurement = 73.9

[[record]]
compound = "S=C=Nc1cccc2ccccc12 [1-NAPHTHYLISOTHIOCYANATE]"
units_label = "µM"
bound_sign = "="
measurement = 69

[[record]]
compound = "CC(=O)Oc1cccc2c1C(=O)c1c(OC(C)=O)cc(C(=O)O)cc1C2=O"
units_label = "µM"
bound_sign = ">"
measurement = 133

[[record]]
compound = "O=c1[nH]c2ccccc2n1CCCN1CCC(n2c(=O)[nH]c3cc(Cl)ccc32)CC1"
units_label = "µM"
bound_sign = ">"
measurement = 133

[[record]]
compound = "COc1cc2nc(N3CCN(C(=O)C4COc5ccccc5O4)CC3)nc(N)c2cc1OC.CS(=O)(=O)O (stereo not drawn) [DOXAZOSIN MESYLATE]"
units_label = "µM"
bound_sign = "="
measurement = 45

